Test: method code SF-AS, from DOI: 10.1016/0223-5234(94)90120-1
Conditions: pH 7.4
readout: logD

1. S=C1SCN(CCc2ccccc2)CN1Cc1ccccc1 = 4.7
2. S=C1SCN(CCc2ccccc2)CN1CCc1ccccc1 = 5.3

* * *

readout: logP

1) Nc1cccc(O)c1 = 0.28

* * *

Experiment: method code SF-HPLC, from DOI: 10.1016/0378-5173(89)90028-8
readout: logP

1. CCN(CC)C(=O)COC(=O)c1cn(CC)c2nc(C)ccc2c1=O = 1.43
2. CCCC(=O)OCOC(=O)c1cn(CC)c2nc(C)ccc2c1=O = 2.2
3. CCn1cc(C(=O)OC)c(=O)c2ccc(C)nc21 = 1.23

* * *

Test: method code SF-HPLC, from DOI: 10.1016/0378-5173(87)90096-2
Conditions: pH 8.0
readout: logD

1. NC(=O)Cc1ccccn1 = -0.64
2. NC(=O)Cc1ccncc1 = -0.59
3. NC(=O)Cc1cccnc1 = -0.59
4. NC(=O)CCCc1ccccn1 = 0.06

* * *

Assay: method code SF-RC, from DOI: 10.1016/j.nucmedbio.2007.12.005, PMID: 18355688
Conditions: pH 7.4
readout: logD

1. CN(Cc1ccccc1)C(=O)Cc1c(-c2ccc(Cl)cc2)nc2c(Cl)cc(Cl)cn12 = 2.67

* * *

Each entry below carries its reported logP.
readout: logP

1. CCCCCCCCc1ccc(OC(=O)Cn2ccc3cc(C(=O)O)ccc32)cc1 = 6.3
2. NC(=O)c1ccc2c(ccn2CC(=O)Oc2ccc(-c3ccccc3)cc2)c1 = 2.4
3. O=C(Cn1ccc2cc(C(=O)O)ccc21)Oc1ccccc1-c1ccccc1 = 3.1

* * *

Test: method code SF-HPLC, from DOI: 10.1016/j.ejmech.2009.03.025, PMID: 19386398
Settings: pH 7.4
readout: logD

1) Cc1ccc(N=NC(C)C(=O)NCCc2ccc(O)cc2)cc1 (stereo unspecified) = 3.9

* * *

Experiment: method code SF-RC, from DOI: 10.1016/j.bmc.2005.04.014, PMID: 15911305
Conditions: pH 7.4
readout: logD

1. Nc1nc(OCc2cccc(I)c2)c2nc[nH]c2n1 = 2.2

* * *

Experiment: method code SF-GLC, from DOI: 10.1021/je970020p
logP overview
readout: logP

1) Clc1cc(Cl)cc(Cl)c1 = 4.09
2) Clc1cc(Cl)c(Cl)c(Cl)c1Cl = 5.2

* * *

readout: logP

1. O=C1/C(=C/c2ccccc2F)CCCc2ccccc21 = 4.55

* * *

Experiment: method code SF-EPR, from DOI: 10.1016/0003-9861(82)90097-2, PMID: 6284047
Details: pH 7.4
Entries annotated with measured logD
readout: logD

1. CCC1(C)OCC(C)(C)N1[O] (configuration not stated) = 1
2. CC1(C)CCCC(C)(C)N1O = 1.81

* * *

readout: logP

1. CCNc1nc(Cl)nc(NC(C)CC)n1 (configuration not stated) = 3.02
2. CNC(=O)N(C)c1nc2ccccc2s1 = 2.38

* * *

readout: logP

1. CC1c2nc3ccccc3c(=O)n2CCN1C (stereo unspecified) = 0.64

* * *

Listed next: entries and their corresponding logP.
readout: logP

1) Cc1cc(Cl)c(Cl)cc1Cc1c(Cl)cccc1Cl = 6.03
2) Cc1cc(Cc2ccc(Cl)cc2Cl)c(Cl)cc1Cl = 6.77
3) Cc1c(Cl)ccc(Cc2c(Cl)cccc2Cl)c1Cl = 6.58
4) Cc1cc(Cc2c(Cl)cccc2Cl)c(Cl)cc1Cl = 6.53
5) Cc1c(Cl)ccc(Cc2ccc(Cl)cc2Cl)c1Cl = 6.85
